Value source: the Deep4Chem optical property database

# runDescription: solvent given as SMILES
# reportedConditions: in CC#N
# if measured emission maximum < 500 nm: 1  # else: 0

Q: Is emission maximum of "CCN(CC)c1ccc2c(c1)OC1=C(/C=C/C3=[N+](C)c4ccc5ccccc5c4C3(C)C)CCCC1=C2c1ccccc1C(=O)O" strictly below 500 nm?
Result: 0

Q: Is emission maximum of CCCCC1=Cc2c3ccc4cccc5ccc(c6cc(-c7ccccc7)n(c26)P1(=O)c1ccccc1)c3c45 (centres undefined) strictly below 500 nm?
Result: 1

Q: Is emission maximum of "CCCCCCCCN1c2ccc(C#Cc3cc(C(F)(F)F)cc(C(F)(F)F)c3)cc2Sc2cc(C=O)ccc21" strictly below 500 nm?
Result: 0

Q: Is emission maximum of "COc1cccc(-n2c(-c3ccc(F)cc3)nc(C)c2C)c1" strictly below 500 nm?
Result: 1

Q: Is emission maximum of "Cc1cccc(-c2[nH]c(=O)n3c2-c2ccccc2C3=O)c1O" strictly below 500 nm?
Result: 1

Q: Is emission maximum of "CC(=O)c1nc(-c2ccc(N(C)C)cc2)oc1C" strictly below 500 nm?
Result: 1

Q: Is emission maximum of "CCN(CC)c1ccc(/C=N/C(C#N)=C(C#N)\N=C\c2ccc(N(CC)CC)cc2O)c(O)c1" strictly below 500 nm?
Result: 0

Q: Is emission maximum of "CCN(CC)c1ccc2cc(/C=C(\C#N)c3nc4ccccc4s3)c(=O)oc2c1" strictly below 500 nm?
Result: 0

Q: Is emission maximum of "CCOC(=O)c1ccccc1-c1c2ccc(=O)cc-2oc2cc(OC(=O)[C@H](CSCc3ccc(C)cc3)NC(=O)OC(C)(C)C)ccc12" strictly below 500 nm?
Result: 0

---

Listed below: emission maximum values for each entry.
# runDescription: solvent given as SMILES
# reportedConditions: in CC#N
Expressed in nm, but write only the number.

CC1=[N+]2C(=C(c3ccccc3)c3c4c(c(C)n3[B-]2(F)F)CCc2ccccc2-4)C2=C1CCc1ccccc12 :: 612
O=C(O)c1ccc(-c2ccc(-c3nc(-c4ccccc4)c4ccccn34)cc2)s1 :: 485
COc1ccc(/C=C2\OC(=O)c3cc(N)ccc32)cc1 :: 450.25
C[n+]1ccn(CCCCc2ccc3c(c2)c2ccccc2n3-c2cc(C#N)c(C#N)cc2F)c1 :: 558
c1ccc2c(c1)c1ccccc1n2-c1ccc(-c2ccc(-n3c4ccccc4c4ccccc43)nc2-n2c3ccccc3c3ccccc32)nn1 :: 464.96
CCCCN1\C(=C/C=C/C=C/C2=[N+](CCCC)c3ccc4ccccc4c3C2(C)C)C(C)(C)c2c1ccc1ccccc21 :: 698
O=P1(c2ccccc2)C(c2ccc(N(c3ccccc3)c3ccccc3)cc2)=Cc2cc3ccccc3cc21 (stereo unspecified) :: 561
CC(C)(C)c1ccc2c(c1)c1cc(C(C)(C)C)ccc1n2-c1ccc2oc3nc4oc5ccc(C(F)(F)F)cc5c4cc3c2c1 :: 513
OC1(c2ccc(-c3cccs3)s2)CCCCC1 :: 466
CCOC(=O)c1sc(SC)c2c(=O)n(C)nnc12 :: 484

Q: Specify measured emission maximum for "C(#Cc1ncnc2ccccc12)c1ccc(N(c2ccccc2)c2ccccc2)cc1" .
Result: 610

Q: Specify measured emission maximum for "COc1ccc(O)c(-c2[nH]c(=O)n3c2-c2ccccc2C3=O)c1" .
Result: 480

---

# runDescription: solvent given as SMILES
# reportedConditions: in CCCCCC
measurementKind: emission maximum (nm)
Expressed in nm, but write only the number.

The examples below pair each entry with its known result.
CC1=[N+]2C(=C(c3ccc(N4CCOCC4)cc3)c3ccc(C)n3[B-]2(F)F)C=C1 :: 520
Cc1ccc(C)n1-c1cccc(C#N)c1 :: 403

From here, focus on the item given below.
Q: Specify measured emission maximum for "OC1(c2ccc(-c3cccs3)s2)CCCCC1" .
Result: 465

---

# runDescription: solvent given as SMILES
# reportedConditions: in CCCO
measurementKind: emission maximum (nm)
Expressed in nm, but write only the number.

The examples below pair each entry with its known result.
COc1ccc(/C=C2\OC(=O)c3cc(N)ccc32)cc1 :: 482.63
CCN1C(=CC=Cc2n(CC)c3cc(Cl)c(Cl)cc3[n+]2CC)N(CC)c2cc(Cl)c(Cl)cc21 :: 532
c1csc(-c2cnc(-c3cccs3)c3nonc23)c1 :: 611
O=Cc1cc(O)c(C=O)cc1O :: 491

Q: Specify measured emission maximum for "Cc1ccccc1/C(C#N)=C/c1ccc(N(C)C)cc1" .
Result: 505

---

Listed below: emission maximum values for each entry.
# runDescription: solvent given as SMILES
# reportedConditions: in CCCCCCO

Q: Specify measured emission maximum for "c1ccc2c(-c3ccc(-c4nnc(-c5ccc(-c6nnc(-c7ccc(-c8cccc9ccccc89)s7)o6)cc5)o4)s3)cccc2c1" .
Result: 445 nm

---

# runDescription: solvent given as SMILES
# reportedConditions: in ClC(Cl)(Cl)Cl
measurementKind: emission maximum (nm)
Expressed in nm, but write only the number.

CN(C)c1ccc(/C=C2\CC/C(=C\c3ccc(C#N)cc3)C2=O)cc1 :: 513
CC(=O)[B-]1(C(C)=O)OC(c2ccccc2)=CC(c2ccccc2)=[O+]1 :: 402
O=C1O[B-]2(OC1=O)OC(c1ccc3ccccc3c1)=CC(c1ccc3ccccc3c1)=[O+]2 :: 451

Q: Specify measured emission maximum for "O=c1oc2ccccc2cc1-c1nc2ccccc2o1" .
Result: 444

---

# runDescription: solvent given as SMILES
# reportedConditions: in C1COCCO1
Listed below: emission maximum values for each entry.
Expressed in nm, but write only the number.

The examples below pair each entry with its known result.
C(/C=C/c1cc2c3c(c1)CCCN3CCC2)=C\c1ccncc1 :: 518
Cc1ccccc1/C(C#N)=C/c1ccc(N(C)C)cc1 :: 476
CC1=C(C(C)(C)C)C(C)=[N+]2C1=C(C)c1c(C)c(C(C)(C)C)c(C)n1[B-]2(F)F :: 565.4
Clc1nc(Nc2ccccc2)nc(Nc2ccc3cc4ccccc4cc3c2)n1 :: 436

From here, focus on the item given below.
Q: Specify measured emission maximum for "O=c1[nH]c(=O)n([C@@H]2O[C@H](CO)[C@@H](O)[C@H]2O)cc1-c1cc2ccccc2s1" .
Result: 435

---

Listed below: emission maximum values for each entry.
# runDescription: solvent given as SMILES
# reportedConditions: in CCCCCC
Expressed in nm, but write only the number.

The examples below pair each entry with its known result.
F[B-]1(F)n2c(ccc2-c2cccs2)C(C(F)(F)F)=C2C=CC(c3cccs3)=[N+]21 :: 674
COc1ccc(-c2nc3c(c4c2-c2ccccc2CC4)-c2ccccc2CC3)cc1 :: 408

Q: Specify measured emission maximum for "CC(C)(C)c1ccc2c(c1)c1cc3c4cc(C(C)(C)C)ccc4c4c5c6ccc(C(C)(C)C)cc6c6cc7c8cc(C(C)(C)C)ccc8c8c2c1c(c34)c(c78)c65" .
Result: 679.35

Q: Specify measured emission maximum for "Cc1ccc2c(c1)C(=O)c1ccncc1-2" .
Result: 487.83

Q: Specify measured emission maximum for "COc1ccc(-c2sc3c(-c4ccc(OC)cc4)c4n(c3c2-c2ccc(OC)cc2)[B-](F)(F)[N+]2=Cc3c(-c5ccc(OC)cc5)c5sc(-c6ccc(OC)cc6)c(-c6ccc(OC)cc6)c5n3[B-](F)(F)[N+]2=C4)cc1" .
Result: 630

---

# runDescription: solvent given as SMILES
# reportedConditions: in C1COCCO1
Listed below: emission maximum values for each entry.
Expressed in nm, but write only the number.

Q: Specify measured emission maximum for "CCOC(=O)/C(C#N)=C\c1cn(-c2ccccc2)nc1-c1ccccc1" .
Result: 408

Q: Specify measured emission maximum for CC1(C)Oc2c(c3nc4ccccc4nc3c3ccccc23)CC1Br (stereo not given) .
Result: 449.44

Q: Specify measured emission maximum for "CN(C)c1ccc2c(c1)C(=O)NC2=O" .
Result: 457

Q: Specify measured emission maximum for CCCCC1=Cc2c3ccc4cccc5ccc(c6cc(-c7ccccc7)n(c26)P1(=O)c1ccccc1)c3c45 (stereo not given) .
Result: 460

Q: Specify measured emission maximum for "COc1ccc(C2=N/C(=C\c3ccccc3)C(=O)O2)cc1OC" .
Result: 447

---

Listed below: emission maximum values for each entry.
# runDescription: solvent given as SMILES
# reportedConditions: in C1CCOC1
Expressed in nm, but write only the number.

The examples below pair each entry with its known result.
CN(c1ccccc1)c1ccc(-c2ccc(-c3ccc(N(C)c4ccccc4)cc3)c3nc(-c4ccccc4)c(-c4ccccc4)nc23)cc1 :: 638
O=S(=O)(c1cccc(N2c3ccccc3Oc3ccccc32)c1)c1cccc(N2c3ccccc3Oc3ccccc32)c1 :: 596
CC(=O)Nc1ccc(S(=O)(=O)O)c(/N=N/c2c(O)c3ccccc3n(C)c2=O)c1 :: 523
Cn1nc(-c2ccccc2)c2nc3cc(F)ccc3nc21 :: 520
COC(=O)c1cc(=O)n(C)c2cc(-c3cc4c5c(c3)CCCN5CCC4)sc12 :: 502

Q: Specify measured emission maximum for "CN(C)CCNc1ccc([N+](=O)[O-])cc1[N+](=O)[O-]" .
Result: 389

Q: Specify measured emission maximum for "O=C1c2ccc3c4ccc5c6c(ccc(c7ccc(c2c37)C(=O)N1c1ccncc1)c64)C(=O)N(c1ccncc1)C5=O" .
Result: 570
